These entries and their values trace back to paper PMC12644596.

assay details: MTT test, normal cells, 24 h
Format: cell-based
condition parameters: human, human dermal adult fibroblasts (HDFa)
metric name: viability at 24 h

QUERY: I would be grateful if you could share the reported viability at 24 h for O=[N+]([O-])c1ccc(NCCCCN=C=S)c2nonc12 [NBDC4NCS] .
RESULT: ~70%
